Would you mind telling me the reported Growth percent of each entry?
Tested on: DU-145
protocol-summary: NCI in vitro 60-cell drug screen (SRB assay)
Type: cell-based
measurement-conditions: DU-145 (Prostate cancer); 10^-5 molar concentration; 48 hours
Give bare numbers, in %.

O=C(O)c1c(Sc2ccc(Cl)cc2)c(O)nc2ccccc12 ... 115.22
O=c1c2cc(Cl)ccc2sc2c(N3CCN(Cc4ccccc4)CC3)nc3ccccc3c12 ... 111.61
O=c1c2cc(Cl)ccc2sc2c(N3CCN(c4ccccc4)CC3)nc3ccccc3c12 ... 111.15
CN1CCN(c2nc3ccccc3c3c(=O)c4cc(Cl)ccc4sc23)CC1 ... 103.45

q: Give Growth percent for the following compound: O=c1c2cc(Cl)ccc2sc2c(N3CCOCC3)nc3ccccc3c12
a: 110.81

----------
System: IGROV1
protocol-summary: NCI in vitro 60-cell drug screen (SRB assay)
Format: cell-based
measurement-conditions: IGROV1 (Ovarian cancer); 10^-5 molar concentration; 48 hours
Please go through the items and note down their Growth percent.
One number for each entry, in %.

Worked set:
O=c1c2cc(Cl)ccc2sc2c(N3CCN(CCO)CC3)nc3ccccc3c12 [Compound 10] ... 71.67
O=c1c2cc(Cl)ccc2sc2c(N3CCOCC3)nc3ccccc3c12 [Compound 13] ... 80.90
CN(C)c1nc2ccccc2c2c(=O)c3cc(Cl)ccc3sc12 [Compound 6] ... 68.16
O=c1c2ccc(Cl)cc2sc2c(Cl)nc3ccccc3c12 [Compound 3] ... 96.06

Field: Growth percent. Fill in for each record below.
1. O=C(O)c1c(Sc2ccc(Cl)cc2)c(O)nc2ccccc12 [Compound 2]
2. CN1CCN(c2nc3ccccc3c3c(=O)c4cc(Cl)ccc4sc23)CC1 [Compound 8]
3. O=c1c2cc(Cl)ccc2sc2c(N3CCN(c4ccccc4)CC3)nc3ccccc3c12 [Compound 12]
4. COc1nc2ccccc2c2c(=O)c3cc(Cl)ccc3sc12 [Compound 5]
5. O=c1c2cc(Cl)ccc2sc2c(O)nc3ccccc3c12 [Compound 4]
6. O=c1c2cc(Cl)ccc2sc2c(N3CCN(Cc4ccccc4)CC3)nc3ccccc3c12 [Compound 11]

a:
[103.57, 80.08, 91.38, 71.44, 78.35, 93.49]

----------
System: MCF7
protocol-summary: NCI in vitro 60-cell drug screen (SRB assay)
Type: cell-based
measurement-conditions: MCF7 (Breast cancer); 10^-5 molar concentration; 48 hours
measured-quantity: Growth percent (%)
One number for each entry, in %.

Solved cases (5 shown):
O=C(O)c1c(Sc2ccc(Cl)cc2)c(O)nc2ccccc12 ... 91.95
O=c1c2ccc(Cl)cc2sc2c(Cl)nc3ccccc3c12 ... 82.58
COc1nc2ccccc2c2c(=O)c3cc(Cl)ccc3sc12 ... 65.39
O=c1c2cc(Cl)ccc2sc2c(N3CCN(CCO)CC3)nc3ccccc3c12 ... 51.73
O=c1c2cc(Cl)ccc2sc2c(O)nc3ccccc3c12 ... 69.90

Provide reported Growth percent for each item, in the same order as listed.
1. O=c1c2cc(Cl)ccc2sc2c(N3CCOCC3)nc3ccccc3c12
2. CN1CCN(c2nc3ccccc3c3c(=O)c4cc(Cl)ccc4sc23)CC1
3. CN(C)c1nc2ccccc2c2c(=O)c3cc(Cl)ccc3sc12
4. O=c1c2cc(Cl)ccc2sc2c(N3CCN(c4ccccc4)CC3)nc3ccccc3c12

a:
1: 50.59; 2: 76.60; 3: 22.19; 4: 74.16

q: Print MCF7 Growth percent for O=c1c2cc(Cl)ccc2sc2c(N3CCN(Cc4ccccc4)CC3)nc3ccccc3c12 .
a: 68.32

The values you see were collected from patent EP3002287B1.
